study-target: HLA-A*02:12
test-name: IEDB peptide-MHC binding, purified MHC/competitive/fluorescence; filed as Kd, often an IC50 or EC50 that approximates it; bounds were set here for any values at or beyond the usual limits of such assays
measurement-context: source organism: Mycobacterium tuberculosis variant bovis BCG str. Pasteur 1173P2
observable: Kd

macromolecule-sequence	recorded-value
AEDLADHHV	≥ 20 µM

---

Listed here: items and their measured pKd.
study-target: HLA-A*03:01
test-name: IEDB peptide-MHC binding, purified MHC/competitive/fluorescence; filed as Kd, often an IC50 or EC50 that approximates it; bounds were set here for any values at or beyond the usual limits of such assays
measurement-context: source organism: Giardia lamblia ATCC 50803
pKd: −log10 of the molar value.

macromolecule-sequence	study-target	pKd
LMLASSAGK	HLA-A*03:01	8.11
LMLASSAGH	HLA-A*03:01	6.25

---

study-target: HLA-B*40:01
test-name: IEDB peptide-MHC binding, purified MHC/competitive/radioactivity; filed as Kd, often an IC50 or EC50 that approximates it; bounds were set here for any values at or beyond the usual limits of such assays
measurement-context: source organism: Mammarenavirus choriomeningitidis
pKd: −log10 of the molar value.

macromolecule-sequence	study-target	pKd
NDSILSHNF	HLA-B*40:01	≤ 4.12

---

# pKd per record follows
study-target: HLA-A*02:01
test-name: IEDB peptide-MHC binding, purified MHC/competitive/radioactivity; filed as Kd, often an IC50 or EC50 that approximates it; bounds were set here for any values at or beyond the usual limits of such assays
measurement-context: source organism: Dengue virus 4 Philippines/H241/1956
pKd: −log10 of the molar value.
observable: pKd

macromolecule-sequence	recorded-value
FMTATPPGA	7.31
KLSMGLIAI	7.91
YMPTVIEEL	7.40

---

study-target: HLA-A*11:01
test-name: IEDB peptide-MHC binding, purified MHC/competitive/radioactivity; filed as Kd, often an IC50 or EC50 that approximates it; bounds were set here for any values at or beyond the usual limits of such assays
measurement-context: source organism: Dengue virus 1 Brazil/97-11/1997
pKd: −log10 of the molar value.
pKd listing for selected sequences.

macromolecule-sequence	pKd
TLLSLTFIK	7.91
RTYSDPLALR	7.04

---

study-target: HLA-B*57:01
test-name: IEDB peptide-MHC binding, purified MHC/competitive/radioactivity; filed as Kd, often an IC50 or EC50 that approximates it; bounds were set here for any values at or beyond the usual limits of such assays
measurement-context: source organism: Dengue virus 2 Peru/IQT2913/1996
pKd: −log10 of the molar value.
# pKd listing for each entry below
observable: pKd

macromolecule-sequence	recorded-value
LTSKELMMTT	6.61
ESSPNPTVEA	6.49

---

study-target: HLA-B*57:01
test-name: IEDB peptide-MHC binding, purified MHC/direct/fluorescence; filed as Kd, often an IC50 or EC50 that approximates it; bounds were set here for any values at or beyond the usual limits of such assays
measurement-context: source organism: Isla Vista hantavirus
pKd: −log10 of the molar value.
observable: pKd

macromolecule-sequence	study-target	observable	recorded-value
SSLRYGNVL	HLA-B*57:01	pKd	≤ 4.70

---

study-target: HLA-A*26:01
test-name: IEDB peptide-MHC binding, purified MHC/direct/fluorescence; filed as Kd, often an IC50 or EC50 that approximates it; bounds were set here for any values at or beyond the usual limits of such assays
measurement-context: source organism: Escherichia coli O157:H7

macromolecule-sequence	study-target	Kd
ITIPIGLYL	HLA-A*26:01	≥ 20 µM
RPPRRGDKF	HLA-A*26:01	≥ 20 µM
